B1: VPS39 (parent)
chain: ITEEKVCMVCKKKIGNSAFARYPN

variants of: B1; test: protein stability index of a GFP-peptide fusion (GPS, HEK-293T) (PSI 1-6); higher = more stable; conditions: c terminus: a fixed tail appended;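 further: lentivirally expressed fusions sorted by FACS into six bins by GFP to DsRed ratio, PSI derived from sequencing read proportions per bin multiplied by bin number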
Recorded Endpoint: protein stability index
Please reply with the value in numeric form only.

Please review the following examples before continuing.
P23H : 2.04
C7E : 4.24
K12D : 2.63
K12Q : 2.25
V6T : 2.3

State the recorded protein stability index for this entry: N16E
2.48

State the recorded protein stability index for this entry: T2D
2.92

State the recorded protein stability index for this entry: K12A
2.28

State the recorded protein stability index for this entry: N16W
2.08

State the recorded protein stability index for this entry: A20S
3.16

State the recorded protein stability index for this entry: A20C
2.56
